Please provide measured melting point for the entries that follow.

Req: Which value of melting point has been reported for Cn1cc(-c2cccc(-n3ncc4cc(C(C)(C)C)cc(F)c4c3=O)c2CO)cc(Nc2ccc(C(C)(C)C(=O)O)cn2)c1=O in the records?
Resp: 218 to 220 °C

Req: What value of melting point has been recorded for this entry: O=C(O)c1cccc(-c2ccc3occ(-c4ccc(Cl)cc4Cl)c3c2)c1
Resp: 271 to 272 °C

Req: May I ask what melting point has been recorded for O=C(O)c1cc(Cl)ccc1-n1cccc1 ?
Resp: 178 °C

Req: Name the reported melting point value associated with the compound COc1cc(NC(C)=O)c2c3c(c4ccccc4nc13)C=CN2
Resp: 128 to 132 °C

Req: So what does the record say about melting point for O=C1CC(c2ccccc2)(c2cccs2)Oc2ccccc21 (stereo not drawn) ?
Resp: 78 to 80 °C

Req: Entry CC(C)(O)CON1C(C)(C)CC(O)CC1(C)C has what melting point?
Resp: 127 to 131 °C

Req: Record request: melting point value, item O=S(=O)(Nc1cccc(CCOCc2ccc(-c3ccc(OC(F)(F)F)cc3)cc2F)c1)C(F)(F)F
Resp: 114 to 115 °C

Req: Query (compound): Cc1oc(-c2ccccc2)nc1COc1ccc(CON=C(CCC(=O)O)c2ccc(Oc3ccccc3)cc2)cc1 ; field requested: melting point
Resp: 131 to 132 °C

For each entry beneath this line, provide reported melting point.
1. CCc1nn(-c2cc(NC(=O)c3ccccc3)ccc2Cl)c(=O)n1Cc1ccc(-c2ccccc2S(=O)(=O)NC(=O)OC(C)(C)C)cc1F
2. CN(C)C(=O)n1cc(C(=O)C2CSC(c3cccnc3)N2)c2ccc(-c3ccccc3)cc21 (stereo not drawn)
3. CC(=O)N(CC(=O)O)c1csc(NC(=O)OCC(Cl)(Cl)Cl)n1
4. O=C(O)c1nc2ccc(Oc3ccccc3)cc2cc1OCc1ccccc1

Resp:
1: 79 to 81 °C; 2: 91 to 97 °C; 3: 158 °C; 4: 281 to 283 °C

----------
Record form. Attribute: melting point. Fill in for each entry.

Req: I'd like to know its melting point. The molecule in question is N#CSCC(Cl)=C(Cl)CCl
Resp: 60 to 63 °C

Req: State the recorded melting point for this entry: O=Cc1ccccc1-c1nnn[nH]1
Resp: 130 °C

Provide reported melting point for each item, in the same order as listed.
1. CC(C)(C)OC(=O)N1CCC(N(Cc2ccccc2)S(N)(=O)=O)CC1
2. CCOC(=O)c1cccc(Cn2cnc3ccccc32)c1
3. Fc1ccc(-c2c(-c3ccncc3)nn3nccnc23)cc1
4. COC(=O)c1ccc(OCc2cccc(OCc3ccc4ccccc4n3)c2)c(OC)c1
5. FC(F)(F)c1cc(CBr)c(C(F)(F)F)cc1CBr
6. CN1C(C)(C)CC(OC(=O)NNC(=O)C(=O)NC2CC(C)(C)NC(C)(C)C2)CC1(C)C
7. CSc1ccc(C(=O)O)c(C(F)(F)F)c1F
8. COC1CCC2C3CCC4CC(=O)C(Cl)CC4(C)C3CCC12C (stereo unspecified)

Resp:
["140 to 142 °C", "68 to 70 °C", "177 to 178 °C", "100 to 101 °C", "80 to 81 °C", "165 to 170 °C", "108 to 109 °C", "202 to 210 °C"]

Req: Please look up its melting point: CC(c1ccc(F)cc1)n1c(NC2CCN(CCc3ccccc3)CC2)nc2ccccc21 (stereo unspecified)
Resp: 162 °C
